Biological target: Genome polyprotein (dengue virus type 2)
Sequence (P29990 1346-1475 limits assumed): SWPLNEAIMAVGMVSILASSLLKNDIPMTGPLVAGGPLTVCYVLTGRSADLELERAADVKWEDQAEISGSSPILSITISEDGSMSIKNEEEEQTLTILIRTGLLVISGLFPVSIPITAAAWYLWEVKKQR
Sequence (P29990 1476-2093 limits assumed): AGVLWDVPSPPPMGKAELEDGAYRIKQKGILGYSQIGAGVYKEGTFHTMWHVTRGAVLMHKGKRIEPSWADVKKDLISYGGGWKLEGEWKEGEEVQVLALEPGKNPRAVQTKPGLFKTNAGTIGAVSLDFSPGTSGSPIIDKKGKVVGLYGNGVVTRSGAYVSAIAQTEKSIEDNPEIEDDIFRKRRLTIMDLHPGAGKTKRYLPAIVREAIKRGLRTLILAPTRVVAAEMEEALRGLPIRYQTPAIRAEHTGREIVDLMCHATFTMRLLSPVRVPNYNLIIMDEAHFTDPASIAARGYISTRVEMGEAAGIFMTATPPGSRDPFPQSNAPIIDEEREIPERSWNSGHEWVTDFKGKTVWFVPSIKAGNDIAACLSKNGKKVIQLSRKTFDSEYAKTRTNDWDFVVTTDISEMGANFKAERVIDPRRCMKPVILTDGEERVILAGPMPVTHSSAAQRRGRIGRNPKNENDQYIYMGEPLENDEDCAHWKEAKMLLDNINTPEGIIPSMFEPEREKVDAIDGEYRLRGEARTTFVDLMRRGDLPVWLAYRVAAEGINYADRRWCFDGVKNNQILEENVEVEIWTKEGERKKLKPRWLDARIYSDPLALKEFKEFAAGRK
Format: functional, Thailand/16681/1984

structure.string	IC50
NCc1cccc(NC(=O)c2cccc3c2O[C@H](c2ccccc2)C(=O)N3)c1	> 99.5 µM
NC1CCN(c2ccc(NC(=O)c3cc(Cl)cc(NC(=O)OCc4ccccc4)c3)cc2)CC1	39.7 µM
CCn1cc(-c2cc(F)ccc2C)nc(N2CC[C@@H](CO)C2)c1=O	> 99.5 µM
O=C(Nc1ccc2c(c1)CNC2)N1C[C@H](C(F)F)C2(CC2)C1	> 99.5 µM
Cc1c(C(=O)Nc2cccc([C@@H](C)N)c2)cc(C2CC2)n1C	> 99.5 µM
Cc1ccc(S(=O)(=O)CCCn2ccc3sccc3c2=O)cc1	> 99.5 µM
CC(C)(CO)NC(=O)c1cc(Cl)cc(NC(=O)c2cc(Cl)ccc2O)c1	> 99.5 µM
Cc1cc(=O)[nH]c(-c2cccc(NC(=O)c3cc(C4CC4)n(C)c3C)c2)n1	> 99.5 µM
Cn1ncc2c(C(=O)Nc3ccc4c(c3)CNC4)cc(C3CC3)nc21	> 99.5 µM
CC[C@H](Cc1nnn[nH]1)c1ccc(NC(=O)c2cc(Cl)cc(SC)c2)cc1	67.2 µM
